PROPERTY_LABEL: logP

1. C=CCCC(=O)N1Cc2cc(OCCc3nc(/C=C/CCC(C)C)oc3C)ccc2C[C@H]1C(=O)O = 3.76
2. C/C=C/C=C/C(=O)N1Cc2cc(OCCc3nc(/C=C/C(C)(C)CC)oc3C)ccc2C[C@H]1C(=O)O = 3.52
3. CC(C)CCC/C=C/c1nc(CCOc2ccc3c(c2)CN(C(=O)/C=C/c2cccs2)C(C(=O)O)C3)co1 (stereo not drawn) = 3.95
4. C/C=C/C=C/C(=O)N1Cc2cc(OCCc3nc(CCCCC(C)C)oc3C)ccc2C[C@H]1C(=O)O = 3.79
5. CCCCCC(=O)N1Cc2cc(OCCc3coc(/C=C/CCCC(C)C)n3)ccc2CC1C(=O)O (stereo not drawn) = 4.34
6. CCOCCC(=O)N1Cc2cc(OCCc3coc(/C=C/CCCC(C)C)n3)ccc2CC1C(=O)O (stereo not drawn) = 3.48
7. Cc1oc(/C=C/CCC(C)C)nc1CCOc1ccc2c(c1)CN(C(=O)/C=C/c1ccco1)[C@H](C(=O)O)C2 = 3.76
8. Cc1oc(/C=C/CCC(C)C)nc1CCOc1ccc2c(c1)CN(C(=O)/C=C/C=C/CO)C(C(=O)O)C2 (stereo not drawn) = 3.09

* * *

PROPERTY_LABEL: logP

1. C/C=C/C=C/C(=O)N1Cc2cc(OCCc3nc(/C=C/C(C)C)oc3C)ccc2C[C@H]1C(=O)O = 2.77
2. C/C=C/C=C/C(=O)N1Cc2cc(OCCc3nc(/C(C)=C/CCC(C)C)oc3C)ccc2C[C@H]1C(=O)O = 4.29
3. CC(C)CCC/C=C/c1nc(CCOc2ccc3c(c2)CN(C(=O)/C=C/C2CC2)C(C(=O)O)C3)co1 (stereo not drawn) = 3.69
4. C/C=C/C=C/C(=O)N1Cc2cc(OCCc3nc(/C=C/C(C)(C)C)oc3C)ccc2C[C@H]1C(=O)O = 3.1
5. C/C=C/C=C/C(=O)N1Cc2cc(OCCc3nc(/C=C/C(C)CCC)oc3C)ccc2C[C@H]1C(=O)O (stereo partly drawn) = 3.84
6. C/C=C/C=C/C(=O)N1Cc2cc(OCCc3nc(/C=C/C(CC)CC)oc3C)ccc2C[C@H]1C(=O)O = 3.68
7. C/C=C/C=C/C(=O)N1Cc2cc(OCCc3nc(/C(C)=C/CC)oc3C)ccc2C[C@H]1C(=O)O = 2.88
8. C/C=C/C=C/C(=O)N1Cc2cc(OCCc3nc(C=CCC(C)C)oc3C)ccc2CC1C(=O)O (stereo not drawn) = 3.23

* * *

PROPERTY_LABEL: logP

1. CC(C)CCC/C=C/c1nc(CCOc2ccc3c(c2)CN(C(=O)/C=C/c2ccco2)C(C(=O)O)C3)co1 (stereo unspecified) = 3.76

[1] CCC/C=C/C(=O)N1Cc2cc(OCCc3coc(/C=C/CCCC(C)C)n3)ccc2CC1C(=O)O (stereo unspecified)
[2] C/C=C/C=C/C(=O)N1Cc2cc(OCCc3nc(/C(=C/C)CC)oc3C)ccc2C[C@H]1C(=O)O
Prompt: Hey, between 1 and 2 which has a smaller measured logP? Output the label that corresponds to your choice.
Completion: 2
(2: 2.75, 1: 4.04)

* * *

PROPERTY_LABEL: logP

1) CCO/C=C/C(=O)N1Cc2cc(OCCc3coc(/C=C/CCCC(C)C)n3)ccc2CC1C(=O)O (stereo not drawn) = 3.56
2) CC(C)=C/C=C/C(=O)N1Cc2cc(OCCc3coc(/C=C/CCCC(C)C)n3)ccc2CC1C(=O)O (stereo not drawn) = 4.09
3) C=CCCCC(=O)N1Cc2cc(OCCc3coc(/C=C/CCCC(C)C)n3)ccc2CC1C(=O)O (stereo not drawn) = 4.03
4) C/C=C/C=C/C(=O)N1Cc2cc(OCCc3nc(/C=C/CCCC(C)C)oc3C)ccc2CC1C(=O)O (stereo not drawn) = 4.1
5) C/C=C/C=C/C(=O)N1Cc2cc(OCCc3nc(/C=C/CCC(C)C)oc3C)ccc2C[C@H]1C(=O)O = 3.81
6) CCC(O)/C=C/C(=O)N1Cc2cc(OCCc3coc(/C=C/CCCC(C)C)n3)ccc2CC1C(=O)O (stereo not drawn) = 3.33
7) C/C=C/C=C/C(=O)N1Cc2cc(OCCc3nc(/C=C/CC(C)(C)C)oc3C)ccc2C[C@H]1C(=O)O = 3.59
8) CCOC/C=C/C(=O)N1Cc2cc(OCCc3coc(/C=C/CCCC(C)C)n3)ccc2CC1C(=O)O (stereo not drawn) = 3.52

Hello, the source for this data is the SangsterLogP compilation, in case you need it.
